- System: NCI-H460 lung
- Experiment Description: NCI-60 one-dose screen, 48 h (100 = growth as untreated, 0 = no growth, -100 = all killed)
- Recorded Conditions: 10 µM unless noted
About 83,000 compounds went through this panel and 20% of them were active in at least one assay; those are over-represented in the sample as a whole.
Readout Kind: growth (%)
Please reply with the bare figure in % and do not write the unit itself.

Please review the following examples before continuing.
CCOC(=O)c1ccc(N2C(=O)C(Cl)(c3ccccc3)C2c2ccco2)cc1 (centres undefined)	84.2
OCCCc1ccccc1	112
Nc1c(Cl)cc2c(c1Br)C(=O)c1ccccc1C2=O	110
CCOC(=O)CN1CCC(C(=O)OCC)CC1	108
Cc1cc(O)c(C(C)C)cc1N=O	115
CCCC(=O)OCC(COC(=O)CCC)OC(=O)CCC	101
CC1=CC(=O)c2cccc(NC3=NCCO3)c21	107
c1ccc2c[n+](Cc3ccc4ccccc4n3)ccc2c1	88.4

Let us examine a further case.
[ask] I'm curious: which growth was measured for COc1ccc(/C=N/NC(N)=S)cc1 tested on NCI-H460 lung?
[reply] 103

###

- System: EKVX NSCLC
- Experiment Description: NCI-60 one-dose screen, 48 h (100 = growth as untreated, 0 = no growth, -100 = all killed)
- Recorded Conditions: 10 µM unless noted
Compounds without any hit were thinned out: in the full panel of roughly 83,000, 20% have a hit. Active and inactive are the calls of the source. Rule for the calls: active = growth percent below 10; inactive = the rest.
In this section, each of the compounds is paired with its reported growth.

Please review the following examples before continuing.
CC1=CC(=O)c2cccc(NC3=NCCO3)c21	98.9% (inactive)
CCN(CC)C(CC(=O)c1ccccc1)C(=O)c1ccccc1 (configuration not stated)	98.2% (inactive)
CC(=O)Oc1cc(C)c(OC(C)=O)c(C)c1C	95.8% (inactive)
Cc1c(Cl)cc(Cl)c(N)c1Cl	103% (inactive)
CN1C2C=CC(=O)C1C1C(=O)N(c3ccccc3)C(=O)C12 (configuration not stated)	106% (inactive)

[ask] Please give the measured growth for this compound: COc1ccc2nccc(Cl)c2c1
[reply] 101% (inactive)

[ask] Please give the measured growth for this compound: CN(C)C(=S)N(C)C
[reply] 127% (inactive)

[ask] Please give the measured growth for this compound: Nc1c(Cl)cc2c(c1Br)C(=O)c1ccccc1C2=O
[reply] 60.2% (inactive)

###

- Test system: SF-268 CNS
- Experiment Description: NCI-60 one-dose screen, 48 h (100 = growth as untreated, 0 = no growth, -100 = all killed)
- Recorded Conditions: 10 µM unless noted
- Method: Cells are grown in 96 well plates and exposed to the test compound for 48 hours. Compounds are tested at a single concentration, which is 10^-5 M for most compounds. The reported endpoint is percent growth (GI% or GIPRCNT), where numbers from 0 - 100% represent growth inhibition, and numbers from -100% - 0 represent cell death. For example, a value of 40 represents 60% growth inhibition. A value of 0 means no net growth occurred over the course of the experiment. […]
The panel holds about 83,000 compounds, 20% with a hit somewhere; the sample as a whole holds those more often.
Readout Kind: growth (%)
Please reply with the bare figure in % and do not write the unit itself.

CCOP(=O)(OCC)/C(C#N)=C/c1c(C)[nH]c2ccccc12	102
Cc1c(Cl)c(C)c(Cc2c(C)c(Cl)c(C)c(Cl)c2O)c(O)c1Cl	19.6

[ask] Please give the measured growth for this molecule: O=P(O)(O)OC1C(OP(=O)(O)O)C(OP(=O)(O)O)C(OP(=O)(O)O)C(OP(=O)(O)O)C1OP(=O)(O)O.[Cu+2] (stereo unspecified)
[reply] 125

[ask] Please give the measured growth for this molecule: Cc1ccc2cccc([N+](=O)[O-])c2n1
[reply] 103

[ask] Please give the measured growth for this molecule: COc1ccc(CCN=Cc2ccc(Cl)cc2)cc1OC
[reply] 99.5

[ask] Please give the measured growth for this molecule: NC(=O)Cc1nc(O)cc(=O)[nH]1
[reply] 102

[ask] Please give the measured growth for this molecule: O=C1C=CC(n2cc(F)c(=O)[nH]c2=O)O1 (stereo unspecified)
[reply] 85.8

###

- System: CCRF-CEM leukemia
- Experiment Description: NCI-60 one-dose screen, 48 h (100 = growth as untreated, 0 = no growth, -100 = all killed)
- Recorded Conditions: 10 µM unless noted
The panel holds about 83,000 compounds, 20% with a hit somewhere; the sample as a whole holds those more often.
Readout Kind: growth (%)
Please reply with the bare figure in % and do not write the unit itself.

Please review the following examples before continuing.
COc1ccc2oc3c(ccc[n+]3C)c(=O)c2c1	110
C=CCN1C(=O)c2ccccc2C1=O	93.3
CSc1nc(N)c(N)c(N)n1	64.7
CCOc1ccc(/C=C\C(=O)O)cc1	96
O=C(O)c1ccc2c3ccc(C(=O)O)c4c(C(=O)O)ccc(c5ccc(C(=O)O)c1c25)c43	111

[ask] Please give the measured growth for this compound: Cc1cc(O)c(C(C)C)cc1N=O
[reply] 90.3

###

In this section, each of the compounds is paired with its reported growth.
- System: PC-3 prostate
- Experiment Description: NCI-60 one-dose screen, 48 h (100 = growth as untreated, 0 = no growth, -100 = all killed)
- Recorded Conditions: 10 µM unless noted
Compounds without any hit were thinned out: in the full panel of roughly 83,000, 20% have a hit.
Please reply with the bare figure in % and do not write the unit itself.

Please review the following examples before continuing.
OCc1ccccc1F	71.9
S=c1nn[nH]n1C1CCCCC1	101
OCCS	99.8

[ask] I'm curious: which growth was measured for Cc1c(Cl)c(C)c(Cc2c(C)c(Cl)c(C)c(Cl)c2O)c(O)c1Cl tested on PC-3 prostate?
[reply] 8.74

###

- System: MALME-3M melanoma
- Experiment Description: NCI-60 one-dose screen, 48 h (100 = growth as untreated, 0 = no growth, -100 = all killed)
- Recorded Conditions: 10 µM unless noted
About 83,000 compounds went through this panel and 20% of them were active in at least one assay; those are over-represented in the sample as a whole.
In this section, each of the molecules is paired with its reported growth.
Please reply with the bare figure in % and do not write the unit itself.

Please review the following examples before continuing.
Clc1ccc2c(c1)N(C1CCCN(Cc3ccccc3)C1)c1ccccc1S2 (stereo unspecified)	78.4
O=P(O)(O)OC1C(OP(=O)(O)O)C(OP(=O)(O)O)C(OP(=O)(O)O)C(OP(=O)(O)O)C1OP(=O)(O)O.[Cu+2] (stereo unspecified)	93.4
CC(=O)/C(N=Nc1ccc(S(=O)(=O)c2ccc(N=N/C(C(C)=O)=C(/C)O)cc2)cc1)=C(\C)O	106
CCN(CC)CCO/N=C1\CC(c2ccc(OC)c(OC)c2)Oc2ccccc21 (stereo unspecified)	107
CCOP(C)(=O)/C(Cc1ccc(OC)c(OC)c1)=N\O (stereo unspecified)	98.5

[ask] Please give the measured growth for this molecule: CCOc1ccc(/C=C\C(=O)O)cc1
[reply] 105

[ask] Please give the measured growth for this molecule: CC1=CC(=O)c2cccc(NC3=NCCO3)c21
[reply] 93.4

[ask] Please give the measured growth for this molecule: COc1cc(Cl)ccc1C
[reply] 93.7

[ask] Please give the measured growth for this molecule: ON=C(C1CCCCC1)C1CCCCC1
[reply] 91.9

###

In this section, each of the molecules is paired with its reported growth.
- System: SK-MEL-2 melanoma
- Experiment Description: NCI-60 one-dose screen, 48 h (100 = growth as untreated, 0 = no growth, -100 = all killed)
- Recorded Conditions: 10 µM unless noted
About 83,000 compounds went through this panel and 20% of them were active in at least one assay; those are over-represented in the sample as a whole. The source made the active and inactive calls. How the source made its calls: active means growth percent below 10; inactive means the rest.

Please review the following examples before continuing.
Cc1c(Cl)cc(Cl)c(N)c1Cl	104% (inactive)
O=C(O)COc1ccccc1F	102% (inactive)

[ask] Please give the measured growth for this molecule: CN(C=O)c1ccccc1
[reply] 103% (inactive)

[ask] Please give the measured growth for this molecule: O=C(c1ccncc1)c1c(Cc2ccccc2)ccc2ccccc12
[reply] 69.7% (inactive)

[ask] Please give the measured growth for this molecule: S=c1nn[nH]n1C1CCCCC1
[reply] 129% (inactive)

[ask] Please give the measured growth for this molecule: O=[N+]([O-])c1ccc(NC(c2ccccc2)c2ccc3cccnc3c2O)cc1 (configuration not stated)
[reply] 36.3% (inactive)

[ask] Please give the measured growth for this molecule: CCCC(=O)OCC(COC(=O)CCC)OC(=O)CCC
[reply] 99.2% (inactive)

[ask] Please give the measured growth for this molecule: CCc1ccc(OC(=O)CCl)cc1
[reply] 99.9% (inactive)

[ask] Please give the measured growth for this molecule: N#CC1c2ccccc2C=CN1C(=O)c1ccccc1 (configuration not stated)
[reply] 109% (inactive)

###

- System: MCF7 breast
- Experiment Description: NCI-60 one-dose screen, 48 h (100 = growth as untreated, 0 = no growth, -100 = all killed)
- Recorded Conditions: 10 µM unless noted
The panel holds about 83,000 compounds, 20% with a hit somewhere; the sample as a whole holds those more often.
Readout Kind: growth (%)
Please reply with the bare figure in % and do not write the unit itself.

Please review the following examples before continuing.
O=[N+]([O-])c1ccc(N2CCN=N2)cc1	87.5
Cc1nc(Nc2ccc(Cl)cc2)c2cnn(-c3ccccc3)c2n1	88.2
NNC(=O)Nc1ccccc1	89.3

Let us examine a further case.
[ask] Please give the measured growth for this compound: CN(C=O)c1ccccc1
[reply] 87.4
